# Tested on: CD2F1 mice, L1210 leukemia ip, survival T/C
# METHOD_SUMMARY: NCI In Vivo Anticancer Drug Screen. Data for tumor model L1210 Leukemia (intraperitoneal) in CD2F1 (CDF1) mice
# APPLIED_CONDITIONS: endpoint: mean survival time; dose: 400.0 mg/kg/injection; schedule: Q01DX009 (ip); vehicle: saline with Tween-80; higher = longer survival
Inconclusive results and toxic doses are left out.
Recorded T/C for the following compounds

Sample records with T/C:
O=C1CCCCCC2CC12 (configuration not stated) | 94 % of control
N#C/C(=C\c1cccc2ccccc12)c1ccccc1 | 97 % of control
CCCCCCCC(=O)Nc1ccc(C)cc1C | 91 % of control

State its T/C: N#CCCN(CC(O)c1cc2ccccc2c2ccccc12)C1CCCCC1 (configuration not stated)
97 % of control

Look up T/C of "O/N=C(/CN1CCOCC1)c1ccccc1" and report it.
96 % of control

Please give the documented T/C of CC1(C)OC2COC3(COC(C)(C)O3)C(OS(C)(=O)=O)C2O1 (configuration not stated)
95 % of control

Return value of T/C for input CSCCC(NC(=O)c1ccccc1)C(=O)O (configuration not stated) , no commentary.
90 % of control

====

# Test system: CD2F1 mice, L1210 leukemia ip, survival T/C
# METHOD_SUMMARY: NCI In Vivo Anticancer Drug Screen. Data for tumor model L1210 Leukemia (intraperitoneal) in CD2F1 (CDF1) mice
# APPLIED_CONDITIONS: endpoint: mean survival time; dose: 200.0 mg/kg/injection; schedule: Q01DX009 (ip); vehicle: saline with Tween-80; higher = longer survival
Toxic doses and inconclusive results are not listed.
PROPERTY: T/C

CC(=O)OCC1CCC1 | 95 % of control
COC1(OC)C2C=CC1CC2 | 103 % of control
NS(=O)(=O)c1cc2c(cc1Cl)NCNS2(=O)=O | 98 % of control
O=C(CCl)Nc1cc(Cl)c(Cl)cc1Cl | 94 % of control
NNC(=O)c1ccc(C(=O)NN)cc1 | 107 % of control
COc1cc([N+](=O)[O-])ccc1NC(=O)Nc1ccc(Cl)cc1 | 87 % of control

Identify T/C associated with the molecule "Cc1cccc2c1-c1c(C)cccc1CSC2"
97 % of control

Return T/C (reported value) for this molecule: "CNS(=O)(=O)c1ccc2c(c1)nc(SC)n2C"
101 % of control

Identify T/C associated with the molecule "O=[N+]([O-])c1ccc(/C=C/c2ccccc2)cc1"
100 % of control

Determine from records and report T/C for "ClCCCCOCCCCCl"
95 % of control

Indicate the recorded T/C value for this molecule: COC1OC(COC(C)=O)C(OC2OC(COC(C)=O)C(OC(C)=O)C(OC(C)=O)C2OC(C)=O)C(OC(C)=O)C1OC(C)=O (stereo not drawn)
104 % of control

Provide one value: measured T/C of "COc1cc(OC)c(NC(=O)C(=O)Nc2cc(Cl)c(OC)cc2OC)cc1Cl"
91 % of control

Report T/C, nothing else, for this molecule: "C=C(C)c1c2ccccc2cc2cccc(Sc3ccccc3)c12"
93 % of control

====

Listed compounds paired with reported T/C
# System: CD2F1 mice, L1210 leukemia ip, survival T/C
# METHOD_SUMMARY: NCI In Vivo Anticancer Drug Screen. Data for tumor model L1210 Leukemia (intraperitoneal) in CD2F1 (CDF1) mice
# APPLIED_CONDITIONS: endpoint: mean survival time; dose: 25.0 mg/kg/injection; schedule: Q04DX003 (ip); vehicle: saline; higher = longer survival
Inconclusive results and toxic doses are left out.

Please review the entries below; each comes with its answer.
CCOC(=O)NCC[N+](C)(C)C | 105 % of control
C#CCO | 97 % of control
CC[C@H]1CN2CCc3cc(OC)c(OC)cc3[C@@H]2C[C@@H]1C[C@@H]1c2cc(OC)c(OC)cc2CCN1N=O | 100 % of control
CN(C)/N=C/c1ccccn1 | 98 % of control
CN(C)CCOc1cccc(Br)c1 | 100 % of control
CCN(CC)CCN1C(=O)c2cccc3cccc(c23)C1=O | 102 % of control

Using known records, supply T/C for "O=C1Cc2cccc(=O)c(O)c2C(=O)O1"
96 % of control

Provide measured T/C value, entry: "COC(=O)C1(N)CCCC1"
101 % of control

Please supply the value of reported T/C for the item "CCN(CC)CCNC1CCCCC1"
97 % of control

// fetch T/C given entry "CCN(CC)CC#CCCCCN(CC)CC"
96 % of control

Please give measured T/C of the following entry: "CN(C)CCCn1c2ccccc2c2cnccc21"
98 % of control
